System: DU145
METHOD NOTES: Euclidean distance of Cell Painting phenotypic profile (signed KS, 77 features) to DMSO centroid (dimensionless distance); 5 or 10 uM (library dependent); higher = stronger phenotypic change vs DMSO (phenoactivity)
TEST CONTEXT: 48 h
Catalogue of molecules with associated Euclidean distance
Please give only the number in your answer, with no unit.

Below, each entry is followed by its recorded Euclidean distance result.
Challenge: Give me measured Euclidean distance, please, for this molecule: "NC(=O)c1noc([C@H](CCCC2CCCCC2)CC(=O)NO)n1"
Response given: 0.701

Challenge: Supply recorded Euclidean distance for COCCCN1CCC(NC(=O)c2cc(Cl)c(N)c3c2OCC3)CC1 [Prucalopride Succinate] here.
Response given: 1.04

Challenge: Item "CCn1c(-c2nonc2N)nc2c(C#CC(C)(C)O)ncc(OC[C@H]3CCCNC3)c21" : provide Euclidean distance
Response given: 1.16

Challenge: Look up and state reported Euclidean distance for "Cn1cnc2c1c(=O)[nH]c(=O)n2C"
Response given: 0.727

Challenge: Give reported Euclidean distance value for CC1=C(C(=O)OCCN(Cc2ccccc2)c2ccccc2)C(c2cccc([N+](=O)[O-])c2)C(P2(=O)OCC(C)(C)CO2)=C(C)N1 (centres undefined)
Response given: 1.02

New cases:
Challenge: Look up and state reported Euclidean distance for Cc1ccccc1C(C(=O)NC1CCCCC1)N(C(=O)Cn1ccnc1C)c1cccc(F)c1 (centres undefined)
Response given: 1.01

Challenge: Let me know recorded Euclidean distance for O=C(NCC(O)CO)c1c(I)c(C(=O)NCC(O)CO)c(I)c(N(CCO)C(=O)CO)c1I (centres undefined) , thanks.
Response given: 0.983

Challenge: Give a short answer stating reported Euclidean distance for CC(C)(C)C(O)/C=C/c1ccc2c(c1)OCO2 (centres undefined) .
Response given: 1.07

Challenge: Could you please provide reported Euclidean distance for "CC(=O)Nc1ccc(CC(=O)O)cc1" ? Thanks!
Response given: 0.902

Challenge: Return value of Euclidean distance for input CO/N=C(\C(=O)N[C@@H]1C(=O)N2C(C(=O)O)=CCS[C@H]12)c1csc(N)n1 [Ceftizoxime] , no commentary.
Response given: 0.987

----------
System: OVCAR4
METHOD NOTES: Euclidean distance of Cell Painting phenotypic profile (signed KS, 77 features) to DMSO centroid (dimensionless distance); 5 or 10 uM (library dependent); higher = stronger phenotypic change vs DMSO (phenoactivity)
TEST CONTEXT: 48 h
Counter-ions that a name gives are not always drawn.
# cutoff 2 applies to Euclidean distance; >= gives True, < gives False

Past entries and their recorded results:
Challenge: Check if Euclidean distance >= 2 (inclusive). Item: Nc1nc(OCc2cc(Br)cs2)c2[nH]cnc2n1 [Lomeguatrib]
Response given: False

Challenge: Please check the record CCCCCCCCCCCCC[N+](C)(C)Cc1ccccc1 [Benzalkonium chloride] and state if its Euclidean distance is at or above 2.
Response given: True

Challenge: Does Euclidean distance meet or surpass 2 for "Cc1cc2c(F)c(Oc3ncnn4cc(OC[C@@H](C)OC(=O)[C@H](C)N)c(C)c34)ccc2[nH]1" ?
Response given: False

Challenge: Please check the record "O=C(O)Cc1cccc(OCCCN(Cc2cccc(C(F)(F)F)c2Cl)CC(c2ccccc2)c2ccccc2)c1" and state if its Euclidean distance is at or above 2.
Response given: False

Challenge: Is reported Euclidean distance greater than or equal to 2 here: O=C(Nc1cccc(C2=NCCN2)c1)Nc1cccc(C2=NCCN2)c1 [Imidocarb dipropionate]
Response given: False

***
Challenge: # bool: Euclidean distance of C[C@H](NCc1ccc(OCc2cccc(F)c2)cc1)C(N)=O [Safinamide Mesylate] >= 2
Response given: False

Challenge: Test whether the molecule CCCCOc1ccc(OCCCN2CCOCC2)cc1 [Pramoxine HCl] records Euclidean distance of 2 or higher.
Response given: False
